molecular target: tetanus neurotoxin (TeNT), authentic tetanus holotoxin (Clostridium tetani, UniProt P04958 2-1315); experiment: ELISA: directly coated TeNT, anti-his6 PO
Sequence (P04958 2-457 limits assumed, chain 1 of 2): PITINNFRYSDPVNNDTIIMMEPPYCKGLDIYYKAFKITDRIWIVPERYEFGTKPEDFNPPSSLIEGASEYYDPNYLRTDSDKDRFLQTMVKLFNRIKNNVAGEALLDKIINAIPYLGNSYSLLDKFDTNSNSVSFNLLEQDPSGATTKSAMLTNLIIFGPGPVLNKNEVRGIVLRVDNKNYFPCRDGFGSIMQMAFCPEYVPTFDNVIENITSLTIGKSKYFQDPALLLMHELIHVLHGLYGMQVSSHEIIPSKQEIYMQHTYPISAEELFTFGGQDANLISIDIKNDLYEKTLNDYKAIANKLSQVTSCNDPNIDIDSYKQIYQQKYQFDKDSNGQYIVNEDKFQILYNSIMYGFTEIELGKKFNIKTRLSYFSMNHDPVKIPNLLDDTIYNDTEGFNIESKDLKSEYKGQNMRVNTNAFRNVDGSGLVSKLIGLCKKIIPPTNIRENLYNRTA
Sequence (P04958 458-1315 limits assumed, chain 2 of 2): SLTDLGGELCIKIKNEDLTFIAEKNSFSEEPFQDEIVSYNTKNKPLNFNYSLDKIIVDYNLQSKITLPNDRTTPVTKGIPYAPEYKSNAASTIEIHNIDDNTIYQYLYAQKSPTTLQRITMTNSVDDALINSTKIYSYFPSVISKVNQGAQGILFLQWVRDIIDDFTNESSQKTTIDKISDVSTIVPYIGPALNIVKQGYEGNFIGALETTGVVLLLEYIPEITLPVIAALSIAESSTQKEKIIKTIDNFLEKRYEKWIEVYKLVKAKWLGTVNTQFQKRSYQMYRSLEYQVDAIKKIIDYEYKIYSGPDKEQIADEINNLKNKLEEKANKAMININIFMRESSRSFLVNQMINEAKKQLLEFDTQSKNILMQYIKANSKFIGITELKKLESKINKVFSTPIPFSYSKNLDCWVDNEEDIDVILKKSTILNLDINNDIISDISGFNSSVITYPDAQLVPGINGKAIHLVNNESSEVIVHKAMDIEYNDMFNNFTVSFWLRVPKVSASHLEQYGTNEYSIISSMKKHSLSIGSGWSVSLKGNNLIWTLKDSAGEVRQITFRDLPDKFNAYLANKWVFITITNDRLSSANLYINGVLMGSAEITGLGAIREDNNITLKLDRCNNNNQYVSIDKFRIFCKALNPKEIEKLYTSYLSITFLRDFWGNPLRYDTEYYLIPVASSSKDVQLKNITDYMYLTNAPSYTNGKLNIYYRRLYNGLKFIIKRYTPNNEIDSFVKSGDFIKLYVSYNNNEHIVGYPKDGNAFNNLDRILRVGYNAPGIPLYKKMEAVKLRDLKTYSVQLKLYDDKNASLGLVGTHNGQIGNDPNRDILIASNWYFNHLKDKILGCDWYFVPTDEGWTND
Consider the following binders and their measured maximal absorbance value readings.
Provide the reading as a plain figure in A450.

binder: SVG13L (VHH) VHH: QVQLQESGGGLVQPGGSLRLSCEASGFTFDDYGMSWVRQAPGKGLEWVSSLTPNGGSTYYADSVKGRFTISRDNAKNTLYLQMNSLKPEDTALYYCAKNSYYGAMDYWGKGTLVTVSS
uom: A450
maximal absorbance value: 0.08

Proceed to the following item.
*Q* Record request: maximal absorbance value value, item SVG06L (VHH) VHH: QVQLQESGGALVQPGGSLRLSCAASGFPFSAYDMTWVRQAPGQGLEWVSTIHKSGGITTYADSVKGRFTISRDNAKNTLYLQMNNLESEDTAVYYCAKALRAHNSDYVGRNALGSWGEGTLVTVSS
*A* 0.05
